Test system: SK-OV-3 ovarian
Assay: NCI-60 one-dose screen, 48 h (100 = growth as untreated, 0 = no growth, -100 = all killed)
Settings: 10 µM
About 83,000 compounds went through this panel and 20% of them were active in at least one assay; those are over-represented in the sample as a whole. The source made the active and inactive calls. The calls were made as follows: active = growth percent below 10; inactive = the rest.

{"molecule": "C=C1N(C)c2ccc(Cl)cc2C1(C)C", "growth": "82% (inactive)"}
{"molecule": "Cc1cc(C)c(N2C(=O)CC(Sc3ccccc3N)C2=O)c(C)c1 (configuration not stated)", "growth": "71.6% (inactive)"}
{"molecule": "COc1ccc(C(C#N)=C2C=CC(=NO)C=C2)cc1", "growth": "114% (inactive)"}
{"molecule": "NCc1c(O)ccc2ccccc12", "growth": "96.9% (inactive)"}
{"molecule": "CC[C@@]1(OC(=O)CN(C)C)C(=O)OCc2c1cc1n(c2=O)Cc2cc3c(N)cccc3nc2-1", "growth": "2.84% (active)"}
{"molecule": "O=[N+]([O-])c1cc(S(=O)(=O)Nc2ccccc2)ccc1Cl", "growth": "96.3% (inactive)"}
{"molecule": "Cc1cc(Cl)ccc1NC(=O)/C(Cl)=C1/Sc2ccccc2NC1=O", "growth": "103% (inactive)"}
{"molecule": "CN(CC(=O)O)c1ccc(/C=C/c2ccnc3ccccc23)cc1", "growth": "91.3% (inactive)"}
{"molecule": "COc1ccc2c(c1)[nH]c1c(/C=C/c3ccccc3)nccc12", "growth": "65.1% (inactive)"}
{"molecule": "CCC(C)(c1ccc(O)c(C)c1)c1ccc(O)c(C)c1", "growth": "50.8% (inactive)"}
{"molecule": "O=S(=O)(c1cc(Cl)ccc1O)c1cc(Cl)ccc1O", "growth": "78.4% (inactive)"}
{"molecule": "O=C(O)c1ccccc1.[Ag]", "growth": "109% (inactive)"}

* * *

Tested on: MDA-MB-435 melanoma
Assay: NCI-60 one-dose screen, 48 h (100 = growth as untreated, 0 = no growth, -100 = all killed)
Details: 10 µM
This is part of a sample that, as a whole, favours compounds with a hit. Of some 83,000 tested, about 20% had one in any assay.
# growth values compiled below
property: growth (%)

{"compound": "O=C(CNS(=O)(=O)Cc1ccccc1)NNc1ccccc1", "reported": 21.9}
{"compound": "N#C/C(=C/N1C(=O)/C(=C/c2ccc([N+](=O)[O-])cc2)SC1=S)c1nc2ccccc2s1", "reported": 99}
{"compound": "O=[N+]([O-])c1cc(S(=O)(=O)Nc2ccccc2)ccc1Cl", "reported": 98.6}
{"compound": "O=C1C(Cl)=C(Cl)C(Cl)(Cl)C(Cl)C1(Cl)Cl (stereo unspecified)", "reported": 111}
{"compound": "Cn1ncc2cc3c(Nc4ccc(Cl)cc4)cccc3nc21", "reported": 100}
{"compound": "COc1ccc(C(C#N)=C2C=CC(=NO)C=C2)cc1", "reported": 23.2}

* * *

Tested on: EKVX NSCLC
Assay: NCI-60 one-dose screen, 48 h (100 = growth as untreated, 0 = no growth, -100 = all killed)
Conditions: 10 µM
The panel holds about 83,000 compounds, 20% with a hit somewhere; the sample as a whole holds those more often.
In plain terms, low growth, meaning strictly below 70%, gives Fulfilled, and everything else gives Not fulfilled.

{"smiles input": "O=S(=O)(c1cc(Cl)ccc1O)c1cc(Cl)ccc1O", "class assignment": "Not fulfilled"}
{"smiles input": "Cc1c(-c2ccccc2)[nH]c2ccccc12", "class assignment": "Not fulfilled"}
{"smiles input": "O=C1c2cccc3cc([N+](=O)[O-])cc(c23)C(=O)N1CCN1CCCC1", "class assignment": "Fulfilled"}
{"smiles input": "CCOC(=O)[C@]1(Br)CC[C@@]1(Br)C(=O)OCC", "class assignment": "Not fulfilled"}
{"smiles input": "COc1ccc2oc(-c3ccc(Cl)cc3)c(N3CCN(C)CC3)c2c1", "class assignment": "Fulfilled"}
{"smiles input": "CCC(C)(c1ccc(O)c(C)c1)c1ccc(O)c(C)c1", "class assignment": "Not fulfilled"}
{"smiles input": "O=Nc1ccc(Nc2ccccc2)cc1", "class assignment": "Not fulfilled"}
{"smiles input": "C=C1N(C)c2ccc(Cl)cc2C1(C)C", "class assignment": "Fulfilled"}
{"smiles input": "NCc1c(O)ccc2ccccc12", "class assignment": "Not fulfilled"}
{"smiles input": "COc1ccc(C(C#N)=C2C=CC(=NO)C=C2)cc1", "class assignment": "Not fulfilled"}
{"smiles input": "CN(C)c1ccc(/C=C/c2ccnc3ccccc23)cc1N", "class assignment": "Fulfilled"}

* * *

// growth lookup, one value per entry
System: NCI/ADR-RES ovarian
Assay: NCI-60 one-dose screen, 48 h (100 = growth as untreated, 0 = no growth, -100 = all killed)
Conditions: 10 µM
Compounds without any hit were thinned out: in the full panel of roughly 83,000, 20% have a hit. Active and inactive are the calls of the source. How the source made its calls: active means growth percent below 10; inactive means the rest.

{"compound": "C=C1N(C)c2ccc(Cl)cc2C1(C)C", "growth": "95.8% (inactive)"}
{"compound": "Cc1c(-c2ccccc2)[nH]c2ccccc12", "growth": "105% (inactive)"}
{"compound": "CN(CC(=O)O)c1ccc(/C=C/c2ccnc3ccccc23)cc1", "growth": "89.3% (inactive)"}
{"compound": "Cc1cc(O)c2c(c1O)C(=O)C13C(=C2O)C(=O)C2C(O)C1C1C(O)C3C(=O)C3=C(O)c4c(O)cc(C)c(O)c4C(=O)C321 (stereo unspecified)", "growth": "-17% (active)"}
{"compound": "CCOC(=O)[C@]1(Br)CC[C@@]1(Br)C(=O)OCC", "growth": "107% (inactive)"}
{"compound": "O=Nc1ccc(Nc2ccccc2)cc1", "growth": "87.9% (inactive)"}
{"compound": "COc1ccc2oc(-c3ccc(Cl)cc3)c(N3CCN(C)CC3)c2c1", "growth": "-10.9% (active)"}
{"compound": "O=C1C=CC(=O)N1c1ccc(N2C(=O)C=CC2=O)cc1", "growth": "102% (inactive)"}
{"compound": "N#CC(=C1C=CC(=NO)C=C1)c1ccccc1", "growth": "-37.2% (active)"}
{"compound": "CN(C)CCNc1cccc2sc3ccc(O)cc3c(=O)c12", "growth": "45% (inactive)"}
{"compound": "O=C1c2ccccc2CCC1(Br)Br", "growth": "19.3% (inactive)"}
{"compound": "ClCCn1c(CCl)nc2ccc(Cl)cc21", "growth": "2.35% (active)"}
{"compound": "O=C1C(Cl)=C(Cl)C(Cl)(Cl)C(Cl)C1(Cl)Cl (stereo unspecified)", "growth": "104% (inactive)"}
{"compound": "O=S(=O)(c1cc(Cl)ccc1O)c1cc(Cl)ccc1O", "growth": "91.9% (inactive)"}
{"compound": "CCC(=O)Oc1ccc(/C=N/NC(N)=S)nc1", "growth": "25.1% (inactive)"}
{"compound": "O=c1[nH]cc(/C=N\\Nc2ccccc2)c(=O)[nH]1", "growth": "56.4% (inactive)"}
{"compound": "O=C(O)c1ccccc1.[Ag]", "growth": "93.2% (inactive)"}
{"compound": "N#C/C(=C/N1C(=O)/C(=C/c2ccc([N+](=O)[O-])cc2)SC1=S)c1nc2ccccc2s1", "growth": "92.3% (inactive)"}
{"compound": "COc1ccc2c(c1)[nH]c1c(/C=C/c3ccccc3)nccc12", "growth": "53.4% (inactive)"}
{"compound": "CN(C)c1ccc(/C=C/c2ccnc3ccccc23)cc1N", "growth": "68% (inactive)"}
{"compound": "NCc1c(O)ccc2ccccc12", "growth": "103% (inactive)"}

* * *

Tested on: SF-268 CNS
Assay: NCI-60 one-dose screen, 48 h (100 = growth as untreated, 0 = no growth, -100 = all killed)
Settings: 10 µM
The panel holds about 83,000 compounds, 20% with a hit somewhere; the sample as a whole holds those more often.

{"compound": "CC[C@@]1(OC(=O)CN(C)C)C(=O)OCc2c1cc1n(c2=O)Cc2cc3c(N)cccc3nc2-1", "study target": "SF-268 CNS", "growth, %": 8.15}
{"compound": "N#C/C(=C/N1C(=O)/C(=C/c2ccc([N+](=O)[O-])cc2)SC1=S)c1nc2ccccc2s1", "study target": "SF-268 CNS", "growth, %": 95}
{"compound": "Nc1nc(N)c2cc(Sc3ccc4ccccc4c3)ccc2n1", "study target": "SF-268 CNS", "growth, %": 42.1}
{"compound": "O=C(O)c1ccccc1.[Ag]", "study target": "SF-268 CNS", "growth, %": 97.1}
{"compound": "COc1cccc(C(c2cc3c(cc2O)OCO3)N2CCOCC2)c1OC (configuration not stated)", "study target": "SF-268 CNS", "growth, %": 95.8}
{"compound": "COc1ccc2c(c1)[nH]c1c(/C=C/c3ccccc3)nccc12", "study target": "SF-268 CNS", "growth, %": 85.5}
{"compound": "COc1cc(N)ccc1Nc1c2ccccc2nc2ccccc12", "study target": "SF-268 CNS", "growth, %": 10.4}
{"compound": "Cn1ncc2cc3c(Nc4ccc(Cl)cc4)cccc3nc21", "study target": "SF-268 CNS", "growth, %": 85.5}
{"compound": "Cc1cc(O)c2c(c1O)C(=O)C13C(=C2O)C(=O)C2C(O)C1C1C(O)C3C(=O)C3=C(O)c4c(O)cc(C)c(O)c4C(=O)C321 (configuration not stated)", "study target": "SF-268 CNS", "growth, %": 10.6}
{"compound": "NCc1c(O)ccc2ccccc12", "study target": "SF-268 CNS", "growth, %": 97.2}
{"compound": "Cc1cc(N=C2C=CC(=[N+](C)C)C=C2)c(N)cc1N", "study target": "SF-268 CNS", "growth, %": 97.9}
{"compound": "ClCCn1c(CCl)nc2ccc(Cl)cc21", "study target": "SF-268 CNS", "growth, %": -69.2}
{"compound": "CN(CC(=O)O)c1ccc(/C=C/c2ccnc3ccccc23)cc1", "study target": "SF-268 CNS", "growth, %": 90.1}
{"compound": "O=C(CNS(=O)(=O)Cc1ccccc1)NNc1ccccc1", "study target": "SF-268 CNS", "growth, %": 60.1}
{"compound": "N#CC(=C1C=CC(=NO)C=C1)c1ccccc1", "study target": "SF-268 CNS", "growth, %": -24}
{"compound": "CN(C)c1ccc(/C=C/c2ccnc3ccccc23)cc1N", "study target": "SF-268 CNS", "growth, %": 87.4}
{"compound": "O=C1C(Cl)=C(Cl)C(Cl)(Cl)C(Cl)C1(Cl)Cl (configuration not stated)", "study target": "SF-268 CNS", "growth, %": 108}
{"compound": "Cc1cc(Cl)ccc1NC(=O)/C(Cl)=C1/Sc2ccccc2NC1=O", "study target": "SF-268 CNS", "growth, %": 103}
{"compound": "O=C1c2ccccc2CCC1(Br)Br", "study target": "SF-268 CNS", "growth, %": 59.3}
{"compound": "O=C(NC(=S)Nc1ccccn1)c1ccccc1", "study target": "SF-268 CNS", "growth, %": 104}
{"compound": "CCC(C)(c1ccc(O)c(C)c1)c1ccc(O)c(C)c1", "study target": "SF-268 CNS", "growth, %": 89.7}
{"compound": "S=C1SCN(CCc2ccccc2)CN1CCc1ccccc1", "study target": "SF-268 CNS", "growth, %": 106}
{"compound": "CC1CCC2(C(=O)O)CCC3(C)C(=CCC4C5(C)CC(O)C(O)C(C)(CO)C5C(O)CC43C)C2C1C (configuration not stated)", "study target": "SF-268 CNS", "growth, %": 111}
{"compound": "O=C1c2cccc3cc([N+](=O)[O-])cc(c23)C(=O)N1CCN1CCCC1", "study target": "SF-268 CNS", "growth, %": 0.438}
{"compound": "Cc1c(-c2ccccc2)[nH]c2ccccc12", "study target": "SF-268 CNS", "growth, %": 104}
{"compound": "COc1ccc(C(C#N)=C2C=CC(=NO)C=C2)cc1", "study target": "SF-268 CNS", "growth, %": 80.9}
{"compound": "COc1ccc2oc(-c3ccc(Cl)cc3)c(N3CCN(C)CC3)c2c1", "study target": "SF-268 CNS", "growth, %": 37.2}
